Biological target: recombinant NS3 protease with the NS4A peptide cofactor … (molar ratio enzyme:cofactor 1:100) (hepatitis C virus genotype 1b)
Test: cell-based or functional assay
Hi there, I'd appreciate the recorded IC50 for every entry that follows.
Write the number in nM without appending the unit.

Prompt: What value of IC50 has been recorded for this entry: Compound 214 (Table 2): Ac-Asp-D-Glu-Chg-Val-Pro(2-NpCH2O)-Nva (peptide)
Completion: 28

Prompt: What value of IC50 has been recorded for this entry: Compound 210 (Table 2): Ac-Asp-D-Glu-Chg-Val-Pro(O-Bn)-Cys (peptide)
Completion: 33

Prompt: What value of IC50 has been recorded for this entry: Compound 518 (Table 5): Ac-Asp-D-Glu-Chg-Val-Pro(1-NpCH2O)-P1(R14 Et; 1R, 2R) (peptide)
Completion: 11

Prompt: What value of IC50 has been recorded for this entry: Compound 203 (Table 2): Ac-Asp-D-Glu-Ile-Val-Pro(O-Bn)-Nva (peptide)
Completion: 600

----------
Target: recombinant NS3 protease with the NS4A peptide cofactor … (molar ratio enzyme:cofactor 1:100) (hepatitis C virus genotype 1b)
Test: cell-based or functional assay
Param label: returns 1.0 when IC50 < 200 nM, returns 0.0 otherwise, including exact equality.

Prompt: API: query returns whether the substance falls strictly under 200 nM in IC50. Query: Compound 235 (Table 2): Boc-Chg-Chg-Pro(1-NpCH2O)-Acca (peptide)
Completion: 0.0

Prompt: API: query returns whether the substance falls strictly under 200 nM in IC50. Query: Compound 212 (Table 2): Ac-Asp-D-Glu-Ile-Val-Pro(O-Bn)-Acca (peptide)
Completion: 0.0

Prompt: API: query returns whether the substance falls strictly under 200 nM in IC50. Query: Compound 509 (Table 5): Ac-Asp-D-Glu-Chg-Chg-Pro(1-NpCH2O)-P1(R14 Et; 1R, 2R) (peptide)
Completion: 1.0

Prompt: API: query returns whether the substance falls strictly under 200 nM in IC50. Query: Compound 521 (Table 5): Ac-Asp-D-Val-Chg-Val-Pro(1-NpCH2O)-P1(R14 Et; 1R, 2R) (peptide)
Completion: 1.0

Prompt: API: query returns whether the substance falls strictly under 200 nM in IC50. Query: Compound 123 (Table 1): Ac-Asp-Asp-Ile-Val-Pro-Nva (peptide)
Completion: 0.0

----------
Hi there, I'd appreciate the recorded IC50 for every entry that follows.
Target: recombinant HCV NS3 protease type 1b (amino acid 1027 to 1206) (hepatitis C virus genotype 1b)
Assay: cell-based or functional assay
Write the number in µM without appending the unit.

Prompt: What value of IC50 has been recorded for this entry: Compound 205 (Table 2): Ac-Asp-Asp-Ile-Val-Pro(m-tolyl-methoxy)-Nva (peptide)
Completion: 6.7

Prompt: What value of IC50 has been recorded for this entry: Compound 127 (Table 1): Ac-Asp-Asp-Ile-Val-Pip-Nva (peptide)
Completion: 605

Prompt: What value of IC50 has been recorded for this entry: Compound 204 (Table 2): Ac-Asp-Asp-Ile-Val-Pro(o-tolyl-methoxy)-Nva (peptide)
Completion: 9.4

Prompt: What value of IC50 has been recorded for this entry: Compound 129 (Table 1): Ac-Asp-Tbg-Ile-Val-Pro-Nva (peptide)
Completion: 270

Prompt: What value of IC50 has been recorded for this entry: Compound 110 (Table 1): Ac-Asp-Asp-Chg-Val-Pro-Cys (peptide)
Completion: 24

Prompt: What value of IC50 has been recorded for this entry: Compound 206 (Table 2): Ac-Asp-Asp-Ile-Val-Pro(p-tolyl-methoxy)-Nva (peptide)
Completion: 6.4

Prompt: What value of IC50 has been recorded for this entry: Compound 114 (Table 1): Ac-Asp-Asp-Ile-Chg-Pro-Cys (peptide)
Completion: 50

Prompt: What value of IC50 has been recorded for this entry: Compound 115 (Table 1): Ac-Asp-Asp-Ile-Val-Abu-Cys (peptide)
Completion: 58
